biological target: WEE1 (Homo sapiens, UniProt P30291+Q96SW2); construct: C-terminal ePL-tagged (DiscoverX, Fremont, CA) full-length WEE1 expression construct; expressed in transfected cells; host or cells: LentiX-HEK293T (Invitrogen), lentiviral transduction; co-expressing GSPT1-GN (G576N, lacking the first 158 amino acids); test: WEE1-ePL degradation assay (LentiX-WEE1-ePL-GSPT1-ND cells, InCELL Hunter luminescence, 4 h); assay type: cell-based; conditions: 293T-LentiX WEE1-ePL cells, read-out: 293T-LentiX WEE1-ePL Degradation 4 hr (EC50)
Sequence (P30291 whole entry): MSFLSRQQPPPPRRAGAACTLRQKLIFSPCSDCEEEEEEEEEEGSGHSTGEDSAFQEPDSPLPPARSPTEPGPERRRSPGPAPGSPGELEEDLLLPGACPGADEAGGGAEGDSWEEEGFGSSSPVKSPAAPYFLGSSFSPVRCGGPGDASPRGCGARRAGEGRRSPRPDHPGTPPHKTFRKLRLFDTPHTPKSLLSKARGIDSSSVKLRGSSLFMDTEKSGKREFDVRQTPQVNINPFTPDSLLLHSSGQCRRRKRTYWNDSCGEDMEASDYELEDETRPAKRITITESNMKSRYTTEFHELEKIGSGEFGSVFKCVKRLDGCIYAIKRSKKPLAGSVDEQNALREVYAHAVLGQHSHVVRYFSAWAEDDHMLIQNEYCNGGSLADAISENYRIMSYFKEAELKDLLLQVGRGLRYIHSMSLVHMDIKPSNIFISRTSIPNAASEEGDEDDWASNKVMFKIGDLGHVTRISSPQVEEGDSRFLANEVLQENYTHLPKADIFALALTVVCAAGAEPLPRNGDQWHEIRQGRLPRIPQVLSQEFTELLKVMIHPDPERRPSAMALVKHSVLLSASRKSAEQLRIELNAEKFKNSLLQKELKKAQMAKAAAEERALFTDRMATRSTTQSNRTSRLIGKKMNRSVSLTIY
Sequence (Q96SW2 whole entry): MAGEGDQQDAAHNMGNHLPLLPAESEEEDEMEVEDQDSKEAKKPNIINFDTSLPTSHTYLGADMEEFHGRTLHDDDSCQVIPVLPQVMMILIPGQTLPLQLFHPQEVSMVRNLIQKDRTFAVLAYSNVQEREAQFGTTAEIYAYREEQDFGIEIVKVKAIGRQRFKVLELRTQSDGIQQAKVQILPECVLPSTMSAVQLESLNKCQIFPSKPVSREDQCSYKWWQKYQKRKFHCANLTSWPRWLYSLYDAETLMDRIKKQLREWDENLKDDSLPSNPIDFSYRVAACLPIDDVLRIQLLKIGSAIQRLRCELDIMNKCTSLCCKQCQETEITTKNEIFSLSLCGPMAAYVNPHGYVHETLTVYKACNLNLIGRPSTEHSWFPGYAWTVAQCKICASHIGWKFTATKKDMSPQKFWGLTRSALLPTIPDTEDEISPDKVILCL
Sequence (Q16531 whole entry partner): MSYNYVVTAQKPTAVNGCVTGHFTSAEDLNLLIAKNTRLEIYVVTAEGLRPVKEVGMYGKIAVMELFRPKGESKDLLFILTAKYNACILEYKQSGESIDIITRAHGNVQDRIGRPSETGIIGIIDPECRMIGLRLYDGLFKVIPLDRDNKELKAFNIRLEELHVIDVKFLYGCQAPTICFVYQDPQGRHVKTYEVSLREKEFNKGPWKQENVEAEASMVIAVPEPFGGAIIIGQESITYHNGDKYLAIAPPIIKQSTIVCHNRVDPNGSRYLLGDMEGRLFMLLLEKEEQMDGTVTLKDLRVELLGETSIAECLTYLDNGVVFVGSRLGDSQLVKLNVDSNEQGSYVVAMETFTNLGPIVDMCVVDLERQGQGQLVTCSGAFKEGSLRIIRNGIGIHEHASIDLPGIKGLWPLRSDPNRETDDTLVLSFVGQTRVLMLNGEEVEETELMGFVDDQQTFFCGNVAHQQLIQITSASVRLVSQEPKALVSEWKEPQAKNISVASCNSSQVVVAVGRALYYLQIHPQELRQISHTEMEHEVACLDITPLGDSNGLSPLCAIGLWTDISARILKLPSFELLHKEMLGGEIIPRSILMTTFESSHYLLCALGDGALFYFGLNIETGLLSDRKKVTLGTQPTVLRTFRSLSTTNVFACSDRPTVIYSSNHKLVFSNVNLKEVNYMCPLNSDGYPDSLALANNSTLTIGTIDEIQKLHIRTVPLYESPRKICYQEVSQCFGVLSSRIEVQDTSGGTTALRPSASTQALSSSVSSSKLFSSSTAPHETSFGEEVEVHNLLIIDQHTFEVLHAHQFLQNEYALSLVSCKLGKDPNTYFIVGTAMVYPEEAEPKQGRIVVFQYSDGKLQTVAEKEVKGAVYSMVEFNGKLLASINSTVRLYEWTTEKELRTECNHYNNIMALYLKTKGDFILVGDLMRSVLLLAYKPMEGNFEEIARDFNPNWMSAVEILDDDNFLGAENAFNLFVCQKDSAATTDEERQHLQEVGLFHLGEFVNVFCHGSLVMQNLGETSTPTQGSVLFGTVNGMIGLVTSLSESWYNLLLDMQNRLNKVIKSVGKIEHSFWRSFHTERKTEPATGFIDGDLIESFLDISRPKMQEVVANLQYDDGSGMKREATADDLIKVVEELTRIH
// reported DC50 per item
Number only, in nM; omit the unit.

See these solved cases before continuing.
COMPOUND: O=C1CCC(N2Cc3cc(O[C@H]4CCN(Cc5cc(-c6cccc(N7CCOCC7)c6)ccn5)C4)ccc3C2=O)C(=O)N1 (stereo partly shown)
DC50 / nM: 2.32
--
COMPOUND: O=C1CC[C@H](N2Cc3cc(O[C@H]4CCN(Cc5ccc6nc(N7CCOCC7)ccc6c5)C4)ccc3C2=O)C(=O)N1
DC50 / nM: 1.83
--
COMPOUND: COCc1ncc2cc(CN3CC[C@H](Oc4ccc5c(c4)CN(C4CCC(=O)NC4=O)C5=O)C3)ccc2n1 (stereo partly shown)
DC50 / nM: 47.5

## Task Request: DC50, test system WEE1 (Homo sapiens, UniProt P30291+Q96SW2), entry O=C1CCC(N2Cc3cc(O[C@H]4CCN(Cc5cncc(-c6ccccc6)c5)C4)ccc3C2=O)C(=O)N1 (stereo partly shown)
## Result 2.17
